B1: library; a variant is named by its letters at N, in order (parent)
chain: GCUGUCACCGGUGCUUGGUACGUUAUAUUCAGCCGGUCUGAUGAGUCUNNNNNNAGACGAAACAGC

variants of: B1; assay: normalized RNA/DNA level without ligand (relative to sTRSVctl = 100) (log10 (% of sTRSVctl)); HEK293T overexpressing SLC46A1; higher = less ribozyme self-cleavage, higher mRNA level; settings: without (6R,S)-folinic acid; ligand present: no
Please go through the items and note down their normalized RNA/DNA level without ligand (log10).
Please reply with the value in numeric form only.

Need normalized RNA/DNA level without ligand (log10), item `CCCUGU`
2.1

Need normalized RNA/DNA level without ligand (log10), item `CAGAUC`
2.05

Need normalized RNA/DNA level without ligand (log10), item `GUCCAC`
2.01

Need normalized RNA/DNA level without ligand (log10), item `UCGUGA`
1.96

Need normalized RNA/DNA level without ligand (log10), item `GGCUUC`
2.09

Need normalized RNA/DNA level without ligand (log10), item `CGCGAC`
2.04

Need normalized RNA/DNA level without ligand (log10), item `GCCACA`
2.04

Need normalized RNA/DNA level without ligand (log10), item `UAAUGC`
1.95

Need normalized RNA/DNA level without ligand (log10), item `CAUCGU`
2.05

Values compiled from the supplement of paper PMC6757056.
